TARGET_ENTITY: T1, West Nile virus strain USA99b (strain 385-99) (West Nile virus strain 385-99 (USA99b))
T1 construct: mature; also called WNV; WN virus
PROTOCOL_SUMMARY: phage ELISA, coated whole inactivated WNV
VALUE_TYPE: OD 492 nm (OD 492 nm)
Reply with just the number (in OD 492 nm).

Given SC04-311 (scFv) scFv: EVQLVQSGGGVVQPGRSLRLSCVASGFTFSKDAMHWVRQAPGKGLEWVAVISYDGSDKHYADSVKGRVTISRDNSRKTLYLRMDSLRAEDTALYYCARGYNSGHYFDYWGQGTLITVSSGTGGSGGTGSGTGGSTQSVLTQPPSVSAAPGQKVTISCSGTSSNIGDNYVSWYQHLPGTAPKLLIYDNNKRPSGIPDRFSGSKSGTSATLGVTGLQTGDEADYYCGTWDSSLTAVVFGGGTKLTVLG , respond with its OD 492 nm.
1.04

Let me know recorded OD 492 nm for SC04-283 (scFv) scFv: EVQLVQSGAEVKKSGESLKISCKGSGYTFNTYWIGWVRQMPGKGLEWMGIIYPGDSDTIYSPSFQGQVTISADKSISTAYLQWSSLKASDSAMYYCARLTFRRGYSGSDSFLPPGDFDYWGQGTLVTVSSGTGGSGGTGSGTGGSTDIQMTQSPSTLSASVGDRVTITCRASQSISSWLAWYQQKPGKAPNLLIYAASSLQSGVPSRFSGSGSGTDFTLTISSLQPDDSATYYCQQYNTYPLTFGGGTKVEIKR , thanks.
1.21

Supply OD 492 nm value. Item: SC04-299 (scFv) scFv: EVQLVETGGGVVQPGRSLRLSCAASGFTFSGYAMHWVRQAPGKGLDWVAVISYDGSEKYSADSVKGRFTISRDNSKNTLYLQMNSLRAEDTAVYYCAKESGGPIWYKYYGVDVWGQGTTVTVSSGTGGSGGTGSGTGGSTSYVLTQPPSLSAAPRQRVTISCSGSSSNIGNYGVNWYQQLPGKAPKLLIYYDDLLPSGVSDRFSGSKSGTSASLAISGLQSEDEGDYYCAAWDDTLSAWVFGGGTKLTVLG
1.07

# return recorded OD 492 nm for input SC04-289 (scFv) scFv: QMQLVQSGAEVKKPGESLRISCKGSGYSFTSNWITWVRQMPGKGLEWMGRIDPSDSYTNYSPSFQGHVTISADKSISTAYLQWSSLKASDTAMYYCARDVVGVGASDYYYYMDVWGKGTTVTVSSGTGGSGGTGSGTGGSTEIVLTQSPGTLSLSPGETATLSCRTSQSVSSSYLGWYQQKPGQAPRLLIYGASIRATGIPARFSGSGSGTEFTLTIDSLQSEDFAVYYCQQYNNWPPITFGQGTRLEIKR
0.759
